Measured values drawn from patent US20210284749A1 for this set.

- system under test: T1, human BCMA expressed on cell surface (H929, OPM-2, CHOK1-hBCMA cells) (human, UniProt Q02223 1-184)
- T1 construct: also called cell-surface BCMA; BCMA on cell surface
- T1 sequence: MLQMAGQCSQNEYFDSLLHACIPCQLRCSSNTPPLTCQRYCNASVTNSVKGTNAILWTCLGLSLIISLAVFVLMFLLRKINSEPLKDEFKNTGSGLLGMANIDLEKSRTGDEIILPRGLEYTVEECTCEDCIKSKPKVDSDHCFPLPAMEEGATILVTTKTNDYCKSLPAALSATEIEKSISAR
- method: FACS on H929 cells
parameter measured: MFI
Form field (numeric): enter value without unit.

Record excerpt, results attached:
mutant antibody 5A6 LM6 (antibody, V domains shown, Light chain CDR mutant of 5A6 (IgG1); heavy chain as 5A6) VH: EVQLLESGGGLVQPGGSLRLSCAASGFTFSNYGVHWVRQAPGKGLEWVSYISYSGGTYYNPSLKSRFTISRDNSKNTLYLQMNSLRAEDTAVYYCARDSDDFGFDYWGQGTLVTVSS VL: QSVLTQPPSASGTPGQRVTISCQGESLRSYYVNWYQQLPGTAPKLLIYDHSKRPTGVPDRFSGSKSGTSASLAISGLRSEDEADYYCQSYDASTVVFGGGTKLTVLG | 78.9
mutant antibody 5D5 LM3 (antibody, V domains shown, Light chain CDR mutant of 5D5 (IgG1); heavy chain as 5D5) VH: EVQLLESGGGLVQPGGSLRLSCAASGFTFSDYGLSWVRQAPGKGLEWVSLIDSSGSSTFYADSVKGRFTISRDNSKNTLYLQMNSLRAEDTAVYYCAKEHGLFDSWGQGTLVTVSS VL: EIVLTQSPGTLSLSPGERATLSCKASQDIDADINWYQQKPGQAPRLLIYDASLRATGIPDRFSGSGSGTDFTLTISRLEPEDFAVYYCQQSLRTPITFGQGTKLEIKR | 31.5
mutant antibody 5D5 LM5 (antibody, V domains shown, Light chain CDR mutant of 5D5 (IgG1); heavy chain as 5D5) VH: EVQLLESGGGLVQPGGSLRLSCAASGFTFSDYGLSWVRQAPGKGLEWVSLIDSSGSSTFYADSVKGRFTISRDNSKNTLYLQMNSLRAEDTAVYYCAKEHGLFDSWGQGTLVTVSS VL: EIVLTQSPGTLSLSPGERATLSCKASQDIDDEINWYQQKPGQAPRLLIYDASLRATGIPDRFSGSGSGTDFTLTISRLEPEDFAVYYCQQSLRTPITFGQGTKLEIKR | 73.6

Continue with the binder presented below.
Q: For the binder mutant antibody 5D5 LM1 (antibody, V domains shown, Light chain CDR mutant of 5D5 (IgG1); heavy chain as 5D5) VH: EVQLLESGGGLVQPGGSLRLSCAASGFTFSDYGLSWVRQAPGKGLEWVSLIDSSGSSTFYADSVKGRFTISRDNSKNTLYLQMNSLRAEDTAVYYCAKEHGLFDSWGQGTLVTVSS VL: EIVLTQSPGTLSLSPGERATLSCKASQDIDNDINWYQQKPGQAPRLLIYDASLRATGIPDRFSGSGSGTDFTLTISRLEPEDFAVYYCQQSLRTPITFGQGTKLEIKR , give its reported MFI.
A: 32
